Assignment: determine reported Dmax for the given molecules.
# test.target: ER (Homo sapiens (Human))
# Sequence (P03372 whole entry): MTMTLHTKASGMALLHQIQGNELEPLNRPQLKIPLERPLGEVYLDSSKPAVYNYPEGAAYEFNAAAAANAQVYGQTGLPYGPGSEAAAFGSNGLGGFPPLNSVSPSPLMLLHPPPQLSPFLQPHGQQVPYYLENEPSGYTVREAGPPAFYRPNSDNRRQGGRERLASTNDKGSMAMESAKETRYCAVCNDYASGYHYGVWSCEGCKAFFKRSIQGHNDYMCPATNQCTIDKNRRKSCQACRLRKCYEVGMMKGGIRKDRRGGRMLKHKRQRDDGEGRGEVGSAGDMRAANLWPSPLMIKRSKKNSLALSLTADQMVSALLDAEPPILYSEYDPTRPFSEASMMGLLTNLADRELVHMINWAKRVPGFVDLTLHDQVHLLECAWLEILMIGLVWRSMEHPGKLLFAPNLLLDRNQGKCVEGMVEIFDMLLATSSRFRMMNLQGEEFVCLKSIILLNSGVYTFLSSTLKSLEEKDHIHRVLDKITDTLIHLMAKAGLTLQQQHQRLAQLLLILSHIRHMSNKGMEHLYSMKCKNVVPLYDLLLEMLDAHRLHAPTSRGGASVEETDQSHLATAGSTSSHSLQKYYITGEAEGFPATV
# assay.protocol: In-cell western (ICW) ER degradation assay in T47D cells
# Format: cell-based
# reported.conditions: maximal ER degradation, 16 hrs

In the examples that follow, each entry is paired with its recorded Dmax.
molecule	Dmax
O=C1CCN(c2ccc(N3CCN(CC4CCN(c5ccc([C@@H]6c7ccc(O)cc7OC[C@@H]6c6ccccc6)cc5)CC4)CC3)cc2)C(=O)N1 (single isomer, unassigned)	25 to 50%
O=C1CCC(N2Cc3c(ccc4c3OCC43CCN(CC4CC5(CCN(c6ccc([C@@H]7c8ccc(O)cc8OC[C@@H]7c7ccccc7)cc6)CC5)C4)CC3)C2=O)C(=O)N1 (stereo partly drawn)	50 to 75%
O=C1CC[C@@H](N2Cc3c(ccc4c3OC[C@@H]3CN(CC5COC6(CCN(c7ccc([C@@H]8c9ccc(O)cc9OC[C@@H]8c8ccccc8)cc7F)CC6)C5)CCN43)C2=O)C(=O)N1 (single isomer, unassigned)	≥ 75%
O=C1CC[C@@H](N2Cc3cc4c(cc3C2=O)CN(C(=O)CN2CCC3(CC2)CCN(c2ccc([C@H]5c6ccc(O)cc6OC[C@H]5c5ccccc5)cc2)CC3)C4)C(=O)N1 (single isomer, unassigned)	≥ 75%
O=C1CC[C@H](N2Cc3cc4c(cc3C2=O)OC[C@@H]2CN(CC3CC5(CCN(c6ccc([C@@H]7c8ccc(O)cc8OC[C@@H]7c7ccccc7)cc6)CC5)C3)CCN42)C(=O)N1 (single isomer, unassigned)	≥ 75%

Need Dmax for each of these molecules.
1. O=C1CC[C@H](N2Cc3c(ccc4c3OC[C@H]3CN(CC5CC6(CCN(c7ccc([C@@H]8c9ccc(O)cc9OC[C@@H]8c8ccccc8)cc7)CC6)C5)CCN43)C2=O)C(=O)N1 (single isomer, unassigned)
2. COc1cc(N2CCC(CN3CCN4c5ccc(C(=O)NC6CCC(=O)NC6=O)nc5OC[C@H]4C3)CC2)ccc1C1c2ccc(O)cc2OCC1c1ccccc1 (stereo in doubt)
3. O=C1CCC(N2Cc3cc(N4CCN(CC5CC6(CCN(c7ccc([C@H]8c9ccc(O)cc9OC[C@H]8c8ccccc8)cn7)CC6)C5)CC4)ccc3C2=O)C(=O)N1 (stereo partly drawn)
4. O=C1CCC(NC(=O)c2ccc3c(n2)OC[C@H]2CN(CC4CCN(c5ccc([C@H]6c7ccc(O)cc7OC[C@H]6c6ccccc6)cc5F)CC4)CCN32)C(=O)N1 (stereo partly drawn)

1: 50 to 75%; 2: ≥ 75%; 3: ≥ 75%; 4: 50 to 75%

* * *

Assignment: determine reported pIC50 for the given molecules.
# Test system: MCF-7 cells
# reported.conditions: read-out: MCF7 Proliferation IC50; CellTiter-Glo, day 6
pIC50: −log10 of the molar value.

In the examples that follow, each entry is paired with its recorded pIC50.
molecule	pIC50
O=C1CCC(N2Cc3cc(N4CCN(CC5CC6(CCN(c7ccc([C@H]8c9ccc(O)cc9OC[C@H]8c8ccccc8)cn7)CC6)C5)CC4)ccc3C2=O)C(=O)N1 (stereo partly drawn)	> 7.30
O=C1CCC(N2Cc3cc(N4CCN(CC5CC6(CCN(c7ccc([C@@H]8c9ccc(O)cc9OC[C@@H]8c8ccccc8)cn7)CC6)C5)CC4)ccc3C2=O)C(=O)N1 (single isomer, unassigned)	> 7.30

State its pIC50 for this molecule: O=C1CCC(N2Cc3cc4c(cc3C2=O)OC[C@@H]2CN(CC3CCC5(CC3)CN(c3ccc([C@@H]6c7ccc(O)cc7OC[C@@H]6c6ccccc6)cc3)C5)CCN42)C(=O)N1 (stereo partly drawn)
6.30 to 7.30
